# method.summary: Cytotoxicity against human HuCCa1 cells after 48 hrs by MTT assay
# Type: functional, cell-based
# applied.conditions: HuCC-A1, 48 h
test.readout: IC50

Examples from the recorded data:
# compound, IC50
measured = [
    ("O=S(=O)(c1ccc(-n2cc(CO)nn2)cc1)N1CCc2ccccc2C1", "51.4 µM"),
    ("COc1cc2c(cc1OC)CN(S(=O)(=O)c1ccc(-n3cc(COc4ccccc4)nn3)cc1)CC2", "> 50 µg/mL"),
    ("Cc1ccccc1OCc1cn(-c2ccc(S(=O)(=O)N3CCc4ccccc4C3)cc2)nn1", "> 50 µg/mL"),
    ("COc1cccc2c1C(=O)c1c(O)c3c(c(O)c1C2=O)C[C@@](O)(C(=O)CO)C[C@@H]3O[C@H]1C[C@H](N)[C@H](O)[C@H](C)O1", "0.83 µM"),
    ("Cc1ccc(OCc2cn(-c3ccc(S(=O)(=O)N4CCc5ccccc5C4)cc3)nn2)cc1", "> 50 µg/mL"),
]

Hey, quick one: what's IC50 for each of these?
1. CC(=O)c1ccccc1OCc1cn(-c2ccc(S(=O)(=O)N3CCc4ccccc4C3)cc2)nn1
2. COC(=O)c1ccccc1OCc1cn(-c2ccc(S(=O)(=O)N3CCc4ccccc4C3)cc2)nn1
3. COc1cc2c(cc1OC)CN(S(=O)(=O)c1ccc(-n3cc(COc4ccccc4C(C)=O)nn3)cc1)CC2
4. O=c1cc(OCc2cn(-c3ccc(S(=O)(=O)N4CCc5ccccc5C4)cc3)nn2)c2ccccc2o1
5. O=S(=O)(c1ccc(-n2cc(COc3ccccc3)nn2)cc1)N1CCc2ccccc2C1

-- reply
1. 30.2 µM
2. 0.63 µM
3. > 50 µg/mL
4. 24.8 µM
5. > 50 µg/mL
